tested on: U-2 OS; assay: relative cell count vs DMSO (cell painting) (fraction of DMSO control); higher = more cells remaining (less cytotoxic); conditions: 5 µM; 24 h
Think of 0.7 as a floor: if relative cell count stands on it or above, it is MET; beneath it, NOT MET.

>>> classification("CC(C)(C)C(=O)OCOc1cccc2ccccc12")
"MET"
>>> classification("COC(=O)[C@@]12OC[C@]34[C@H]([C@@H](O)[C@@H]1O)[C@@]1(C)CC(=O)C(O)=C(C)[C@@H]1C[C@H]3OC(=O)[C@H](OC(=O)CC(C)C)[C@@H]24")
"NOT MET"
>>> classification("COc1ccc(C[C@H](N)C(=O)N[C@H]2[C@@H](O)[C@H](n3cnc4c(N(C)C)ncnc43)O[C@@H]2CO)cc1")
"NOT MET"
>>> classification("CNC(=O)c1cc(Oc2ccc(NC(=O)Nc3ccc(Cl)c(C(F)(F)F)c3)cc2)ccn1")
"MET"
>>> classification("NC(=O)c1ccc(I)c([N+](=O)[O-])c1")
"MET"
>>> classification("O=C(Nc1ccc([N+](=O)[O-])cc1Cl)c1cc(Cl)ccc1O")
"MET"
>>> classification("O=C(O[C@@H]1Cc2c(O)cc(O)cc2O[C@@H]1c1cc(O)c(O)c(O)c1)c1cc(O)c(O)c(O)c1")
"MET"
>>> classification("COc1cccc2c1C(=O)c1c(O)c3c(c(O)c1C2=O)C[C@@](O)(C(=O)CO)C[C@@H]3O[C@H]1C[C@H](N)[C@H](O)[C@H](C)O1")
"NOT MET"
>>> classification("O=[N+]([O-])c1c(Sc2ncnc3nc[nH]c23)cc(Cl)c2nsnc12")
"MET"
>>> classification("C[C@@H]1C[C@@H]([C@H](O)CC2CC(=O)NC(=O)C2)C(=O)[C@@H](C)C1")
"NOT MET"
>>> classification("CC[C@H]1CN2CCc3cc(OC)c(OC)cc3[C@@H]2C[C@@H]1C[C@H]1NCCc2cc(OC)c(OC)cc21.Cl.Cl.O")
"NOT MET"
>>> classification("CC1(C)CC[C@]2(C(=O)n3ccnc3)CC[C@]3(C)[C@H](C(=O)C=C4[C@@]5(C)C=C(C#N)C(=O)C(C)(C)[C@@H]5CC[C@]43C)[C@@H]2C1")
"NOT MET"
>>> classification("CCCCCCCCCCCCCCCc1cccc(O)c1C(=O)O")
"MET"
>>> classification("CC(C)C[C@@H](C=O)NC(=O)[C@H](CC(C)C)NC(=O)[C@H](CC(C)C)NC(=O)OCc1ccccc1")
"NOT MET"
>>> classification("CCCCCCCCCCCC1=C(O)C(=O)C=C(O)C1=O")
"MET"
>>> classification("C=C1[C@@H](C)[C@H]2[C@H](Cc3ccccc3)NC(=O)[C@]23[C@H](OC(C)=O)/C=C/[C@@](C)(O)C(=O)[C@@H](C)C/C=C/[C@H]3[C@@H]1O")
"NOT MET"
>>> classification("O=C(Nc1nc(-c2ccccc2)ns1)c1cccs1")
"MET"
>>> classification("CN1C(=O)[C@@]23C[C@]4([C@]56C[C@@]78SS[C@@](CO)(C(=O)N7[C@H]5Nc5ccccc56)N(C)C8=O)c5ccccc5N[C@@H]4N2C(=O)[C@]1(CO)SS3")
"NOT MET"
>>> classification("C=CC(=O)Nc1cc2c(Nc3ccc(F)c(Cl)c3)ncnc2cc1OCCCN1CCOCC1")
"NOT MET"
>>> classification("O=c1c(O)c(-c2ccc(O)c(O)c2)oc2cc(O)ccc12")
"MET"
>>> classification("CCc1c2c(nc3ccc(O)cc13)-c1cc3c(c(=O)n1C2)COC(=O)[C@]3(O)CC")
"NOT MET"
>>> classification("O=c1cc(N2CCOCC2)oc2c(-c3ccccc3)cccc12")
"MET"
>>> classification("N[C@@H](Cc1ccc(N(CCCl)CCCl)cc1)C(=O)O")
"MET"
>>> classification("CC(C)[C@H]1OC(=O)[C@H](Cc2ccccc2)N(C)C(=O)[C@@H](C(C)C)OC(=O)[C@H](Cc2ccccc2)N(C)C(=O)[C@@H](C(C)C)OC(=O)[C@H](Cc2ccccc2)N(C)C1=O")
"MET"
>>> classification("CO[C@H]1C[C@@H]2CC[C@@H](C)[C@@](O)(O2)C(=O)C(=O)N2CCCC[C@H]2C(=O)O[C@H]([C@H](C)C[C@@H]2CC[C@@H](O)[C@H](OC)C2)CC(=O)[C@H](C)/C=C(\\C)[C@@H](O)[C@@H](OC)C(=O)[C@H](C)C[C@H](C)/C=C/C=C/C=C/1C")
"MET"
>>> classification("C#CC[C@H](c1nc2cc(Cl)ccc2c(=O)n1Nc1ccccc1)N(CCCN)C(=O)c1cccc(Cl)c1F")
"NOT MET"
>>> classification("Cc1ccc(C(=O)N(CCCN)[C@@H](c2nc3cc(Cl)ccc3c(=O)n2Cc2ccccc2)C(C)C)cc1")
"NOT MET"
>>> classification("CCN1C(=O)C=CC1=O")
"MET"
>>> classification("CN(C)C/C=C/C(=O)Nc1ccc(C(=O)Nc2cccc(Nc3ncc(Cl)c(-c4c[nH]c5ccccc45)n3)c2)cc1")
"NOT MET"
>>> classification("Cn1nnnc1SC1=CS(=O)(=O)c2ccccc21")
"NOT MET"
>>> classification("C[C@@]1(CO)[C@H](O)CC[C@@]2(C)[C@H]1CC[C@H]1C[C@@H]3C[C@@]12CC[C@]3(O)CO")
"NOT MET"

* * *

system: U-2 OS; assay: relative cell count vs DMSO (cell painting) (fraction of DMSO control); higher = more cells remaining (less cytotoxic); conditions: 5 µM; 24 h
Below is a list of entries, each paired with its recorded relative cell count value.
Readout label: relative cell count

>>> readout_number("C=CC(=O)Nc1cc(Nc2nccc(-c3cn(C)c4ccccc34)n2)c(OC)cc1N(C)CCN(C)C")
0.897
>>> readout_number("CN[C@@H]1C[C@H]2O[C@@](C)([C@@H]1OC)n1c3ccccc3c3c4c(c5c6ccccc6n2c5c31)C(=O)NC4")
0.127
>>> readout_number("O=C(CBr)N1CC([N+](=O)[O-])([N+](=O)[O-])C1")
0.891
>>> readout_number("C[C@@H]1C[C@H]2O[C@@H]2/C=C\\C=C\\C(=O)Cc2c(Cl)c(O)cc(O)c2C(=O)O1")
0.466
>>> readout_number("Cn1c(SC2=CS(=O)(=O)c3ccccc32)nnc1-c1ccc(O)cc1")
0.761
>>> readout_number("NC1CS(=O)(=O)c2ccccc21 (stereo not given)")
1.07
>>> readout_number("C[C@@H]1O[C@@H](O[C@H]2[C@H](O[C@H]3CC[C@@]4(C)[C@@H](CC[C@]5(C)[C@@H]4CC=C4[C@@H]6CC(C)(C)CC[C@]6(C(=O)O)CC[C@]45C)[C@]3(C)CO)OC[C@H](O[C@@H]3O[C@H](CO)[C@@H](O)[C@H](O)[C@H]3O)[C@@H]2O)[C@H](O)[C@H](O)[C@H]1O")
0.0427
>>> readout_number("O=C(O)CCCc1ccc(N(CCCl)CCCl)cc1")
0.881
>>> readout_number("O=[N+]([O-])c1ccc(-c2nnc(SC3=CS(=O)(=O)c4ccccc43)o2)cc1")
0.394
>>> readout_number("Nc1nc(-c2ccccc2)ns1")
0.973
>>> readout_number("CC(C)=C[C@@H]1CO[C@]23C[C@]4(CO2)[C@H](CC[C@@H]2[C@@]5(C)CC[C@H](O[C@@H]6OC[C@H](O)[C@H](O[C@@H]7O[C@H](CO)[C@@H](O)[C@H](O)[C@H]7O)[C@H]6O[C@@H]6O[C@@H](CO)[C@H](O)[C@H]6O)C(C)(C)[C@@H]5CC[C@]24C)[C@H]3[C@@]1(C)O")
0.762
>>> readout_number("CC1=C(CO)C(=O)O[C@H](C(C)[C@H]2CC[C@@H]3[C@H]4C[C@H]5O[C@@]56[C@@H](O)C=CC(=O)[C@@]6(C)C4CC[C@@]23C)C1 (stereo not given in full)")
0.38
>>> readout_number("Cc1[nH]c2ccccc2c1CCNCc1ccc(/C=C/C(=O)NO)cc1")
0.466
>>> readout_number("Cc1cc(NC(=O)c2cccc(NC(=O)/C=C/CN(C)C)c2)ccc1Nc1nccc(-c2cccnc2)n1")
0.839
>>> readout_number("C=C1C(=O)O[C@H](CCC)[C@H]1C(=O)O")
0.973

* * *

system: U-2 OS; assay: AUC of culture confluence over time (live-cell imaging) (AUC (confluence % x time)); higher = more confluent culture (less growth inhibition); details: 40 µM
Readout label: AUC of culture confluence over time

>>> readout_number("Cl.Cl.O=C(O)Cn1nnc(-c2ccc(CN(CCCCOc3ccc(CN4CCCC4)cc3)CCc3ccccc3)cc2)n1")
19.9
>>> readout_number("O=C(/C(C(N1CC2=CC=CC=C2)=O)=C/C3=C(C)C=C(O)C=C3C)N(CC4=CC=CC=C4)C1=O")
34.6
>>> readout_number("O=C(O[C@@H]1Cc2c(O)cc(O)cc2O[C@@H]1c1cc(O)c(O)c(O)c1)c1cc(O)c(O)c(O)c1")
41.4
>>> readout_number("COc1cc(/C=C/c2cc(/C=C/c3ccc(O)c(OC)c3)n(-c3ccc(C(=O)[O-])cc3)n2)ccc1O.[Na+]")
27.3
